# Target system: aryl sulfatase B (ARSB) (Homo sapiens)
# Construct: purchased R & D Systems
# Sequence (P15848 37-533, species assumed): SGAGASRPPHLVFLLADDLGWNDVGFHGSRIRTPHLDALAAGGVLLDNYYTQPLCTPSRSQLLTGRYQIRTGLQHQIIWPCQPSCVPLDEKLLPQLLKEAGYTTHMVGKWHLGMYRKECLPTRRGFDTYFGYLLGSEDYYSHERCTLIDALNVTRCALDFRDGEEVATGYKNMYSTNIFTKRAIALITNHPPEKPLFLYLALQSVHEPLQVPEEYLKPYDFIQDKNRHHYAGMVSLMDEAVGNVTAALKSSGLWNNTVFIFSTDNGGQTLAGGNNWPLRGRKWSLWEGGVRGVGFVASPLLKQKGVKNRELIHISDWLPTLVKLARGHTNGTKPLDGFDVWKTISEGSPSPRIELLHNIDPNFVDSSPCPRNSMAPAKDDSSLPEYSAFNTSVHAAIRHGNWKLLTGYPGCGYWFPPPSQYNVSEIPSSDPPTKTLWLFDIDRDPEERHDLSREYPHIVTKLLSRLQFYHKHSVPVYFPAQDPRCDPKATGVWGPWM
# Experimental details: ARSB inhibition assay with 4-MUS substrate
# Assay type: biochemical
# Experimental conditions: 1 mM compound; 4-MUS substrate; means of two or more determinations; read-out: ARSB% inh @ 1 mM
Value kind: inhibition at 1000 µM (%)

Nc1ccccc1Oc1cccc(OS(N)(=O)=O)c1: 17
Nc1ccc(Oc2cccc(OS(N)(=O)=O)c2)cc1: 0
NS(=O)(=O)Oc1cccc(Oc2cccc(NS(=O)(=O)O)c2)c1: 85
Nc1ccccc1-c1cccc(OS(N)(=O)=O)c1: 0
Nc1cccc(-c2cccc(OS(N)(=O)=O)c2)c1: 0
NS(=O)(=O)Oc1cccc(-c2ccccc2N(S(=O)(=O)OCC(Cl)(Cl)Cl)S(=O)(=O)OCC(Cl)(Cl)Cl)c1: 0
O=S(=O)(Nc1cccc(-c2ccccc2)c1)OCC(Cl)(Cl)Cl: 61
NS(=O)(=O)Oc1cccc(-c2ccc(NS(=O)(=O)OCC(Cl)(Cl)Cl)cc2)c1: 68
NS(=O)(=O)Oc1cccc(Oc2cccc(C(=O)O)c2)c1: 0
NS(=O)(=O)Oc1cccc(Oc2ccc(NS(=O)(=O)OCC(Cl)(Cl)Cl)cc2)c1: 86
CC(=O)Nc1ccccc1-c1cccc(OS(N)(=O)=O)c1: 0
NS(=O)(=O)Oc1cccc(Oc2ccc(NS(=O)(=O)O)cc2)c1: 77
CC(=O)Nc1ccccc1Oc1cccc(OS(N)(=O)=O)c1: 48
CC(=O)Nc1cccc(-c2cccc(OS(N)(=O)=O)c2)c1: 33
O=S(=O)(Nc1cccc(-c2ccccc2)c1)OCC(F)(F)F: 92
NS(=O)(=O)Oc1cccc(-c2cccc(NS(=O)(=O)OCC(Cl)(Cl)Cl)c2)c1: 67
NS(=O)(=O)Oc1cccc(Oc2ccccc2N(S(=O)(=O)OCC(Cl)(Cl)Cl)S(=O)(=O)OCC(Cl)(Cl)Cl)c1: 40
O=S(=O)(OCC(Cl)(Cl)Cl)Oc1cccc(-c2ccccc2)c1: 85

====

# Target system: Sulf-2 (Homo sapiens, UniProt Q8IWU5)
# Construct: host or cells: 293T cells, transiently transfected
# Sequence (Q8IWU5 25-870): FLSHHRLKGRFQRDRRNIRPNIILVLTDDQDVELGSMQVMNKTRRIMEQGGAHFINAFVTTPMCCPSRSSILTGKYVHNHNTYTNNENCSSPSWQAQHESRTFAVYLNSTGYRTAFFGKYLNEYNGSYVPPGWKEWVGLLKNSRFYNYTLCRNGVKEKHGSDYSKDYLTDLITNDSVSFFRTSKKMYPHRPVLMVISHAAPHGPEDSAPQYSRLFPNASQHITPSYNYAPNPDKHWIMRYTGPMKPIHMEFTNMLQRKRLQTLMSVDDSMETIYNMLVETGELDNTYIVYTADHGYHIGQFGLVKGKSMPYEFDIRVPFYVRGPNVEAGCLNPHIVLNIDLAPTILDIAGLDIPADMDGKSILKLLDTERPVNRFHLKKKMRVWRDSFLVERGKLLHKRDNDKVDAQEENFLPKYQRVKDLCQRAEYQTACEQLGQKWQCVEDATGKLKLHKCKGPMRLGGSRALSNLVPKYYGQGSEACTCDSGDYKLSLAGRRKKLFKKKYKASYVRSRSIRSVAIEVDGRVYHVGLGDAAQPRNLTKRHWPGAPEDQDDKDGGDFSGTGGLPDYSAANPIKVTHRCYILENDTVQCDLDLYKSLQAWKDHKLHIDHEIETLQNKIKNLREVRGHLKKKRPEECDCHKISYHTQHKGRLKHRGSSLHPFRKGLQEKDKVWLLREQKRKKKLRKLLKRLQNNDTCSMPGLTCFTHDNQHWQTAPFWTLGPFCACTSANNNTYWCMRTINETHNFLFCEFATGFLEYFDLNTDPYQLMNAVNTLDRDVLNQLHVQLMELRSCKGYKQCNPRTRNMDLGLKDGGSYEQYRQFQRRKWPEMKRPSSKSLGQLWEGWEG
# Experimental details: Inhibition of Sulf-2-catalysed desulfation of 4-MUS to fluorescent MU
# Type: biochemical
# Experimental conditions: 1 mM compound; 4-MUS substrate; means of two or more determinations; read-out: Sulf-2% inh @ 1 mM
Outcome label depends on inhibition at 1000 µM relative to 30%: at/above gives TRUE, below gives FALSE.

CC(=O)Nc1cccc(Oc2cccc(OS(N)(=O)=O)c2)c1 [Compound 38]: FALSE
NS(=O)(=O)Oc1cccc(Oc2cccc(NS(=O)(=O)O)c2)c1 [Compound 56]: TRUE
Nc1ccc(Oc2cccc(OS(N)(=O)=O)c2)cc1 [Compound 27]: FALSE
NS(=O)(=O)Oc1cccc(Oc2ccc(NS(=O)(=O)O)cc2)c1 [Compound 57]: FALSE
NS(=O)(=O)Oc1cccc(Oc2ccccc2C(=O)O)c1 [Compound 73]: FALSE
Nc1ccccc1Oc1cccc(OS(N)(=O)=O)c1 [Compound 25]: FALSE
NS(=O)(=O)Oc1cccc(-c2ccccc2NS(=O)(=O)O)c1 [Compound 62]: TRUE

====

# Target system: Sulf-2 (Homo sapiens)
# Construct: host or cells: 293T cells, transiently transfected
# Experimental details: Inhibition of Sulf-2-catalysed desulfation of 4-MUS to fluorescent MU
# Format: biochemical
# Experimental conditions: 1 mM compound; 4-MUS substrate; means of two or more determinations; read-out: Sulf-2% inh @ 1 mM
The entries below are paired with their reported inhibition at 1000 µM.
Value kind: inhibition at 1000 µM

Nc1ccccc1-c1cccc(OS(N)(=O)=O)c1: 21%
NS(=O)(=O)Oc1cccc(Oc2ccc(C(=O)O)cc2)c1: 23%
O=S(=O)(Nc1cccc(-c2ccccc2)c1)OCC(Cl)(Cl)Cl: 100%
NS(=O)(=O)Oc1cccc(-c2ccc(NS(=O)(=O)OCC(Cl)(Cl)Cl)cc2)c1: 96%
NS(=O)(=O)Oc1cccc(Oc2ccccc2NS(=O)(=O)O)c1: 56%
